Experiment: In vivo pharmacokinetics in mice
Cond: mouse, plasma; intravenous administration 2 mg/kg, female CD-1 mice; read-out: Half-life T1/2 (converted)
Readout name: half-life

[in] Can you share its half-life? I mean this molecule: Cc1ccc(NC(=O)c2ccnc(C(F)(F)F)c2)cc1-c1cc(OCCO)nc([C@]23COC[C@H]2C3)c1 [Compound 16B]
[out] 85.8 min

----------
Form field: IC50 (one value per entry).
Tested on: Ca1u-6 (Kras^Q61K)
Experiment: Ca1u-6 (Kras^Q61K) antiproliferative activity (CellTiter Glo)
Format: cell-based, human
Cond: Homo sapiens, Calu-6, 72 h, Ca1u-6 (Kras^Q61K) cells, three days, read-out: Calu-6 anti-proliferative activity IC50
Answer in µM, number only, no unit symbol.

Reference set, count: 6
[
  {
    "Molecule": "Cc1ccc(NC(=O)c2ccnc(C(F)(F)F)c2)cc1-c1cc(N(C)CCO)nc(C23CCOCC2C3)c1 (stereo not shown)",
    "IC50, µM": 1.1
  },
  {
    "Molecule": "Cc1ccc(NC(=O)c2ccnc(C(F)(F)F)c2)cc1-c1cc(OCCO)nc([C@]23COC[C@H]2C3)c1 [Compound 16B]",
    "IC50, µM": 0.6
  },
  {
    "Molecule": "Cc1ccc(NC(=O)c2ccnc(C(F)(F)F)c2)cc1-c1cc(OC[C@H](O)CO)nc(C23CCOCC2C3)c1 (stereo partly shown)",
    "IC50, µM": 6.4
  },
  {
    "Molecule": "Cc1ccc(NC(=O)c2ccnc(C(F)(F)F)c2)cc1-c1cc(OCC(C)(C)O)nc(C23CCOCC2C3)c1 (stereo not shown)",
    "IC50, µM": 4.7
  },
  {
    "Molecule": "Cc1ccc(NC(=O)c2ccnc(C(F)(F)F)c2)cc1-c1cc(OCCO)nc(C23CCOCC2C3)c1 (single isomer, unassigned)",
    "IC50, µM": 1.2
  },
  {
    "Molecule": "Cc1ccc(NC(=O)c2ccnc(C(F)F)c2)cc1-c1cc(OCCO)nc(C23CCOCC2C3)c1 (stereo not shown)",
    "IC50, µM": 4.6
  }
]

[in] Which IC50 is listed for Cc1ccc(NC(=O)c2ccnc(C(C)(F)F)c2)cc1-c1cc(OCCO)nc(C23CCOCC2C3)c1 (stereo not shown) ?
[out] 1

----------
pIC50 values, listed per item
Tested on: ERK phosphorylation in Ca1u-6(Kras^Q61K)
Experiment: Ca1u-6 (Kras^Q61K) ERK phosphorylation inhibition (HTRF)
Assay type: cell-based, human
Cond: Homo sapiens, Calu-6, 1 h, Ca1u-6 (Kras^Q61K) cells, 1 hour with compound, read-out: Calu-6 ERK phosphorylation inhibitory activity IC50
Method: Experiments for Ca1u-6(Kras^Q61K) ERK Phosphorylation Inhibition 1) cells were resuscitated, cultured to a logarithmic growth phase, then digested with trypsin and seeded in a 96-well plate, and the plate was incubated overnight in an incubator; 2) serial gradients of compounds dissolved in DMSO were added to the 96-well plate, which was then put back into the incubator for 1 hour; […]
Scale note: pIC50 = -log10(concentration in M).

Examples with answers:
[
  {
    "Compound": "Cc1ccc(NC(=O)c2ccnc(C(F)(F)F)c2)cc1-c1cc(OCCO)nc(C23CCOCC2(C#N)C3)c1 (stereo not drawn)",
    "pIC50": 6.48
  },
  {
    "Compound": "Cc1ccc(NC(=O)c2ccnc(C(F)(F)F)c2)cc1-c1cc(C23CCOCC2C3)cc(OCCO)n1 (stereo not drawn)",
    "pIC50": 6.46
  }
]

Then this compound:
[in] Would you mind telling me what pIC50 value was observed for Cc1ccc(NC(=O)c2ccnc(C(F)(F)F)c2)cc1-c1cc(OCCO)nc(C23CCOCC2C3(F)F)c1 (stereo not drawn) ?
[out] 6.37
